Attribution: PubChem BioAssay (NCI)

Reported TGI by item:
system: UACC-257 melanoma; experiment: NCI tumour cell line growth inhibition, 48 h

Some molecules with recorded TGI:
O=Nc1c(-c2c(O)[nH]c3cc(Br)ccc23)[nH]c2ccccc12 :: 3.95 µM
C=CC(=O)NC(N)=NC#N :: 249 µM
COC(=O)[C@@]1(C)C(=O)CC[C@@H]1C=O :: > 100 µM
O=C1Cc2nc(CO)c(CO)c(CO)c2CO1 :: > 100 µM
CC(=O)OCC1OC(N2C(c3ccccc3)=CC(c3ccco3)C(C#N)=C2S)C(OC(C)=O)C(OC(C)=O)C1OC(C)=O (configuration not stated) :: > 100 µM
CC(=O)OCC1OC(OC2C(COC(C)=O)OC(Sc3ccccc3C)C(OC(C)=O)C2OC(C)=O)C(OC(C)=O)C(OC(C)=O)C1OC(C)=O (configuration not stated) :: > 100 µM
COc1cc2cc(C(=O)N3CC(CCl)c4ccc([N+](=O)[O-])cc43)[nH]c2c(OC)c1OC (configuration not stated) :: > 100 µM
O=S1(=O)c2ccccc2C(Nc2ccccc2)N1c1ccccc1 (configuration not stated) :: > 100 µM

Q. Request: TGI, test system UACC-257 melanoma, entry "O=C(O)c1cc(=O)cc(C(=O)O)o1"
A. > 100 µM

Q. Request: TGI, test system UACC-257 melanoma, entry "CCOC(=O)CC[C@H](NC(=O)N[C@H](C)c1ccccc1)C(=O)OCC"
A. 46.6 µM

Q. Request: TGI, test system UACC-257 melanoma, entry "CSc1nc(CO)c(CO)n1C"
A. > 100 µM

Q. Request: TGI, test system UACC-257 melanoma, entry "Oc1ccc2ccccc2c1N=Nc1cc(Cl)ccc1Cl"
A. > 50 µM

Q. Request: TGI, test system UACC-257 melanoma, entry "COc1ccc2c(C)c(Oc3c(Cl)c(Cl)c(O)c(C#N)c3C#N)oc2c1"
A. > 100 µM

Q. Request: TGI, test system UACC-257 melanoma, entry "COc1ccc(-c2nc3c(nc2-c2ccc(OC)cc2)C(N)=NS(=O)(=O)N3)cc1"
A. > 100 µM

Q. Request: TGI, test system UACC-257 melanoma, entry "O=C1/C(=C/c2ccc(O)cc2)CCc2ccc([N+](=O)[O-])cc21"
A. > 100 µM

* * *

tested on: MDA-MB-231 breast; experiment: NCI tumour cell line growth inhibition, 48 h; in the data active = GI50 below about 0.43 µM; inactive = the rest
Select the correct class. Options are True (active), False (inactive) and nothing else.

Examples with answers:
O=C(c1ccc(C(F)(F)F)c(Cl)c1)N(Cc1ccc(Cl)cc1)c1ccc(-c2cc(C(F)(F)F)[nH]n2)c(O)c1 :: False
COc1cc(CNCCN2C(=O)c3ccc4c5c(ccc(c35)C2=O)C(=O)N(CCNCc2cc(OC)c(OC)c(OC)c2)C4=O)cc(OC)c1OC :: True
CC(=O)CC/C=C(\C)[C@H](O)[C@H](C)C(=O)O[C@H]1C[C@H](C)C=C2C=C[C@@]3(C)O[C@@H](O)CC(=O)[C@]3(C)[C@H]21 :: False
N#Cc1c(NC(=O)c2ccc(F)cc2)sc2c1CCCC2 :: False
COc1cc(N2C(=O)[C@H](c3ccccc3)C2c2ccc(SC)cc2)cc(OC)c1OC (stereo partly drawn) :: True
N#CC1=C(N)NC(=S)NC12Nc1ccccc1S2 (stereo not drawn) :: False
O=C(COc1cccc(/C=C2\CSc3ccc(Cl)cc3C2=O)c1)c1ccc(Cl)cc1 :: False

Now examine the next entry.
Q. For this molecule, state the assay outcome: "COc1cc(/C=C/c2cc(/C=C/c3ccc(O)c(OC)c3)n(C(=O)Nc3ccccc3Cl)n2)ccc1O"
A. False
